B1: VAMP4 (parent)
chain: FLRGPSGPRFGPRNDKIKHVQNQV

# Variants of: B1
# Protocol Description: protein stability index of a GFP-peptide fusion (GPS, HEK-293T) (PSI 1-6); higher = more stable;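 further: lentivirally expressed fusions sorted by FACS into six bins by GFP to DsRed ratio, PSI derived from sequencing read proportions per bin multiplied by bin number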
# Experimental Conditions: c terminus: a fixed tail appended
Readout Type: protein stability index
Reply briefly: the number, and no unit.

As a guide, the following entries are already answered.
Item Sequence	protein stability index
FLRGPSGPRFGFRNDKIKHVQNQV [P12F]	2.7
FLRGPSGPRFGPRNQKIKHVQNQV [D15Q]	2.5
FLRGPSGPRQGPRNDKIKHVQNQV [F10Q]	3.14
FLRGPSGPRFGPRNDWIKHVQNQV [K16W]	1.86
FLRGPSGPRSGPRNDKIKHVQNQV [F10S]	2.86
FLRGPSHPRFGPRNDKIKHVQNQV [G7H]	2.86
FLRGPSGPRFGPRFDKIKHVQNQV [N14F]	2.29
FLRGKSGPRFGPRNDKIKHVQNQV [P5K]	2.95
FLRGPSGPRFGPRNDKIKHEQNQV [V20E]	3.91
FLRGPSGPDFGPRNDKIKHVQNQV [R9D]	2.91

Would you kindly look at the next entry?
Name the reported protein stability index value associated with the variant FLRYPSGPRFGPRNDKIKHVQNQV [G4Y]
2.24
